Cited source for all entries: ChEMBL document CHEMBL4002593

Biological target: Histone acetyltransferase KAT2A (Homo sapiens, UniProt Q92830)
Sequence (Q92830 whole entry): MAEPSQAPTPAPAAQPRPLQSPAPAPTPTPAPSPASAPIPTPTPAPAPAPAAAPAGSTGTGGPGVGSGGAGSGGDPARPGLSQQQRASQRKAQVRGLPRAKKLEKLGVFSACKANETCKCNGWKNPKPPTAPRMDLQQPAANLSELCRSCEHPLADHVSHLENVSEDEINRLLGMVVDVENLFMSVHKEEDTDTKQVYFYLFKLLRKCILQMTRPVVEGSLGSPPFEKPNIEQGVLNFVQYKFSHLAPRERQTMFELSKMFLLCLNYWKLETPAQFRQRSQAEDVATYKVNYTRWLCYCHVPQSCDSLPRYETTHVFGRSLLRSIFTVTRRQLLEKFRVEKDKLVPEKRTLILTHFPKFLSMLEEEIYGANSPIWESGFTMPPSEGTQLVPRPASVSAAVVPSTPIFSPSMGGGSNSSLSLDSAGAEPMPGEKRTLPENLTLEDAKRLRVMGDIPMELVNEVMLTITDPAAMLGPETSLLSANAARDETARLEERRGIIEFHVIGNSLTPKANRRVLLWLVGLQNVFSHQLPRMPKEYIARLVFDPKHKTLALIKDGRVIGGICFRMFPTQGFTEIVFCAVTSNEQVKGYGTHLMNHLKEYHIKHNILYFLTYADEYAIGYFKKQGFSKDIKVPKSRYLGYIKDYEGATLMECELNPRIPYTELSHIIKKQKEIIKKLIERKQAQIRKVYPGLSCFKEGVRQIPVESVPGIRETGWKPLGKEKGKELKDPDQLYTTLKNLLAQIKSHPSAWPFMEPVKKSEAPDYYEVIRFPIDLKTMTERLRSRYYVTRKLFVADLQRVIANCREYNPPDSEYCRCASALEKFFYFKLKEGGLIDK
Assay: Binding affinity to human partial length GCN5 expressed in bacterial expression system by BROMOscan method
READOUT: Ki (nM)
# unit: nM | format: bare number

**Query** // returns reported Ki for input `CN1C[C@H](Nc2cnn(C)c(=O)c2Br)C[C@H](c2ccccc2)C1`
**Result** 1.4

---

Experiment: Distribution coefficient, log D of the compound at pH 7.4 by chromatography
Type: physicochemical
Conditions: octanol/water
Just a reminder that ties go to F: only chromatographic logD strictly below 2 counts as T.

Check out these entries, answers already filled in.
compound=Cc1ccccc1CNc1cnn(C)c(=O)c1Cl label_class=F
compound="CN1CCCC(Nc2cnn(C)c(=O)c2Cl)C1 (stereo not given)" label_class=T
compound=CN1C[C@H](Nc2cnn(C)c(=O)c2Cl)C[C@H](c2ccccc2)C1 label_class=F
compound=Cc1ccsc1CNc1cnn(C)c(=O)c1Cl label_class=F
compound=CNc1cnn(C)c(=O)c1Cl label_class=T

**Query** Given the entry `CN1CCC(Nc2cnn(C)c(=O)c2Cl)CC1` , would its reported chromatographic logD be below 2?
**Result** T

**Query** Given the entry `Cn1ncc(Nc2ccccc2)c(Cl)c1=O` , would its reported chromatographic logD be below 2?
**Result** F

**Query** Given the entry `CC(C)Nc1cnn(C)c(=O)c1Cl` , would its reported chromatographic logD be below 2?
**Result** F

**Query** Given the entry `Cn1ncc(NCc2ccc(F)cc2)c(Cl)c1=O` , would its reported chromatographic logD be below 2?
**Result** F

**Query** Given the entry `CN1C[C@H](Nc2cnn(C)c(=O)c2Cl)C[C@@H](c2ccccc2)C1` , would its reported chromatographic logD be below 2?
**Result** F

**Query** Given the entry `CN1C[C@@H](Nc2cnn(C)c(=O)c2Cl)C[C@@H](c2ccccc2)C1` , would its reported chromatographic logD be below 2?
**Result** F

**Query** Given the entry `CN1C[C@H](Nc2cnn(C)c(=O)c2Br)C[C@H](c2ccccc2)C1` , would its reported chromatographic logD be below 2?
**Result** F

**Query** Given the entry `Cc1cccc(Nc2cnn(C)c(=O)c2Cl)c1` , would its reported chromatographic logD be below 2?
**Result** F

**Query** Given the entry `Cc1ncsc1CNc1cnn(C)c(=O)c1Cl` , would its reported chromatographic logD be below 2?
**Result** T

**Query** Given the entry `Cn1ncc(Nc2ccccc2CN)c(Cl)c1=O` , would its reported chromatographic logD be below 2?
**Result** T

**Query** Given the entry `CN1CCC[C@@H](Nc2cnn(C)c(=O)c2Cl)C1` , would its reported chromatographic logD be below 2?
**Result** T

**Query** Given the entry CN1CCC(Nc2cnn(C)c(=O)c2Cl)C1 (stereo not given) , would its reported chromatographic logD be below 2?
**Result** T

**Query** Given the entry `CN1C[C@@H](Nc2cnn(C)c(=O)c2Br)C[C@@H](c2ccccc2)C1` , would its reported chromatographic logD be below 2?
**Result** F

**Query** Given the entry `Cn1ncc(NCc2ccccc2)c(Cl)c1=O` , would its reported chromatographic logD be below 2?
**Result** F

**Query** Given the entry `CN1CCC[C@H](Nc2cnn(C)c(=O)c2Cl)C1` , would its reported chromatographic logD be below 2?
**Result** T

---

Target: Bromodomain-containing protein 9 (Homo sapiens)
Sequence (Q9H8M2 whole entry): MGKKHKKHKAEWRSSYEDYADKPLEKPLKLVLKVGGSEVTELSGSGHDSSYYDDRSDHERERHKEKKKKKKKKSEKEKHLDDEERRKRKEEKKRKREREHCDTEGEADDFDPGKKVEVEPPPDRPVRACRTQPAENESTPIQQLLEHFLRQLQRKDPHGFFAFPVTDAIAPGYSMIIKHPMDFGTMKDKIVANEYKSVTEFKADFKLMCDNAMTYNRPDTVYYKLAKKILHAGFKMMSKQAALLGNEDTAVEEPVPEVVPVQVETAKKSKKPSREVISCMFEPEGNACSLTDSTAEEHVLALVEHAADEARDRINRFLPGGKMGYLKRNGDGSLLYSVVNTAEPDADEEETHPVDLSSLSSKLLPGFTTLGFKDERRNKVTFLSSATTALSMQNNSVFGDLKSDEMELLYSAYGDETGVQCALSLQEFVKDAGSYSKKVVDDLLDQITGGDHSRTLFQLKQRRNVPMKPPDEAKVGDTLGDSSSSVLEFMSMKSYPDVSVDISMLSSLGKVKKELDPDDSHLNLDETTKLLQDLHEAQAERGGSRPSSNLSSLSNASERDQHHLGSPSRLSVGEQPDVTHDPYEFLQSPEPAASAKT
Experiment: Displacement of GSK2833930A from human BRD9 incubated for 30 mins in dark by TR-FRET assay
Conditions: read-out: pIC50 (converted)
READOUT: IC50

**Query** // returns reported IC50 for input CN1CCCC(Nc2cnn(C)c(=O)c2Cl)C1 (stereo unspecified)
**Result** > 50.1 µM

**Query** // returns reported IC50 for input `CN1C[C@@H](Nc2cnn(C)c(=O)c2Cl)C[C@@H](c2ccccc2)C1`
**Result** > 50.1 µM

**Query** // returns reported IC50 for input `CN1CCC(Nc2cnn(C)c(=O)c2Cl)CC1`
**Result** > 50.1 µM

**Query** // returns reported IC50 for input `CN1C[C@H](Nc2cnn(C)c(=O)c2Br)C[C@H](c2ccccc2)C1`
**Result** 7.94 µM

**Query** // returns reported IC50 for input `Cc1cccc(Nc2cnn(C)c(=O)c2Cl)c1`
**Result** 1.26 µM

**Query** // returns reported IC50 for input `CN1CCC[C@@H](Nc2cnn(C)c(=O)c2Cl)C1`
**Result** > 50.1 µM

---

molecules and their reported solubility
Experiment: Aqueous solubility of the compound by chemiluminescent nitrogen detection method
Assay type: physicochemical
Conditions: buffer
# unit: µM | format: bare number

given_smiles=CN1C[C@H](Nc2cnn(C)c(=O)c2Br)C[C@H](c2ccccc2)C1 readout=solubility reported_value=395

The record that follows has no solubility shown yet.
**Query** // returns reported solubility for input `CN1C[C@@H](Nc2cnn(C)c(=O)c2Br)C[C@@H](c2ccccc2)C1`
**Result** 363

---

Molecular target: Bromodomain and PHD finger-containing protein 3 (Homo sapiens)
Sequence (Q9ULD4 whole entry): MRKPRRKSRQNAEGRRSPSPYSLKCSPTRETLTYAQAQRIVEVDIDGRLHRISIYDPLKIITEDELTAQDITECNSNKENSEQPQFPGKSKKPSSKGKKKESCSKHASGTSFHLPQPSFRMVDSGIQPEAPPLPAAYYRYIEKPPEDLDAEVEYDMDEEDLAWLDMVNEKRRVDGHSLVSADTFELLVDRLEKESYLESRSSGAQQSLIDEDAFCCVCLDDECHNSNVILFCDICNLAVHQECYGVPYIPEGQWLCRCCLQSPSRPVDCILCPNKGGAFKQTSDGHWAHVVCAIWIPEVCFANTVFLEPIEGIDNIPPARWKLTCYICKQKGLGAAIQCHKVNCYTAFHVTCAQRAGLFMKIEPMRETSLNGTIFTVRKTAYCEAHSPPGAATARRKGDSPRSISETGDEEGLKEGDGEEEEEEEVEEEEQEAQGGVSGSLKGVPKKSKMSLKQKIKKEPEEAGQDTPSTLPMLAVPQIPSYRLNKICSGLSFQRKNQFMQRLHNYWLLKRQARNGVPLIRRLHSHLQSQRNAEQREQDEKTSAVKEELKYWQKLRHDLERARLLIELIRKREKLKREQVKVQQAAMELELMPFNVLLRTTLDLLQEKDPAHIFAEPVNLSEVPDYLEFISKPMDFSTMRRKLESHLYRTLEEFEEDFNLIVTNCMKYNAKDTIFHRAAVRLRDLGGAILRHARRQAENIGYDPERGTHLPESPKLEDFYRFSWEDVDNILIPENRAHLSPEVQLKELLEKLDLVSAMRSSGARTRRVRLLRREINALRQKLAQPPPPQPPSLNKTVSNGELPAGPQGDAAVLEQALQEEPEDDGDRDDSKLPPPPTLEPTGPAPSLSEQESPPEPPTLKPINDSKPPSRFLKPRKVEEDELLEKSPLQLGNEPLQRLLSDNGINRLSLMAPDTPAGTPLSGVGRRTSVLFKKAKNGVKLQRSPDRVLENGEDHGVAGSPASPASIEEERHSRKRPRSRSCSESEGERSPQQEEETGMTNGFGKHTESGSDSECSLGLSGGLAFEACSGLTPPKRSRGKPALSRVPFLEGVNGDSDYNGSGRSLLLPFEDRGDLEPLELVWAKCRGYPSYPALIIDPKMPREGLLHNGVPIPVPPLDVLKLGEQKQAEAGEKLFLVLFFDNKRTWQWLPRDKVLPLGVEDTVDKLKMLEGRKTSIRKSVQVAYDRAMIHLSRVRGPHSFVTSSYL
Test: Binding affinity to human partial length BRPF3 expressed in bacterial expression system by BROMOscan method
READOUT: Ki
Numeric answer plus unit only.

**Query** // returns reported Ki for input `CN1C[C@H](Nc2cnn(C)c(=O)c2Br)C[C@H](c2ccccc2)C1`
**Result** 100 nM
